Form field: pKd (one value per entry).
Target: T1, PUF4 RNA-binding domain (Saccharomyces cerevisiae, UniProt P25339 537-888)
T1 sequence: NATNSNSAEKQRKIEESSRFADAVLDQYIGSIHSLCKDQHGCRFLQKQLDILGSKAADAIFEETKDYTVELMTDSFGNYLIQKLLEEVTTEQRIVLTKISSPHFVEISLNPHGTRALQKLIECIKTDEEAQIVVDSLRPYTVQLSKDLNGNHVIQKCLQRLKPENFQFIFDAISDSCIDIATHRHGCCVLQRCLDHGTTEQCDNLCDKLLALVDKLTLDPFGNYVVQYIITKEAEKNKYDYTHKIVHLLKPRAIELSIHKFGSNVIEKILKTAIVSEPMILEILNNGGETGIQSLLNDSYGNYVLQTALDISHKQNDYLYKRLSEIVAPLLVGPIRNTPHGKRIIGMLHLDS
Experiment: Mg; RNA-MaP; 20 mM Na-HEPES pH 7.4, 30 mM KOAc, 0.75 mM MgCl2, 0.1% Tween-20, 5% glycerol, 0.1 mg/mL BSA, 2 mM DTT; 25 C; 0.0125-409.6 nM protein
Settings: tags: N-His6-TEV cleaved; C-SNAP kept, Cy3B-labelled; label: tethered on chip by stalled RNA polymerase
pKd: −log10 of the molar value.
Quantity Measured: pKd

UCUCUUUGUAUUAUGUCUCUU (ssRNA) [Ic_S1_P4E.1_K4.1_C4.1_H4.1_A4.1_[A6T]_[T7A]_F4.1_[A9G]_T4.1] = 7.97
Ie_S2_P5E.1_K5.1_C5.1_H5.1_A5.1_[+6TTCCT]_F5.1_T5.1 (ssRNA) RNA: UUUGAUUAAUAUGAUAUCGUUCUUUCUUGUAUUUUCCUAUUAUUCUUUCUCGAUAUCAUAUUAAUCUUU = 7.91
Id_i_S4_P3E.6_K3.2_C3.3_[T-3G]_[C-2G]_[T-1C]_H3.2_A3.1_F3.1_T3.2 (ssRNA) RNA: UUUGACAACUGAUCGUUCUUUCUGGCUAUAUAUAUAUUCUUUCUCGAUCAGUUGUCUUU = 5.85
Ic_S4_P4E.1_K4.1_C4.1_H4.1_A4.1_[T5C]_[A6C]_F4.1_[T8A]_T4.1 (ssRNA) RNA: UUUGACAACUGAUCGUUCUUUCUUGUACCUAAUUCUUUCUCGAUCAGUUGUCUUU = 7.80
UCUCUUUCUGUAUAUAUUUCUCUU (ssRNA) [Id_ii_S1_P3E.2_K3.1_C3.2_[C-2T]_[T-1C]_H3.1_A3.1_F3.1_T3.2_[A10T]] = 8.25
UCUCUUUGUACUCUAUCUCUU (ssRNA) [Ic_S1_P4E.1_K4.1_C4.1_H4.1_A4.1_[T5C]_[A6T]_[T7C]_F4.1_T4.1] = 8.46
